Endpoint: pIC50. System: Plasmin (Homo sapiens). Items follow.
Sequence (P00747 581-810 limits assumed, species assumed): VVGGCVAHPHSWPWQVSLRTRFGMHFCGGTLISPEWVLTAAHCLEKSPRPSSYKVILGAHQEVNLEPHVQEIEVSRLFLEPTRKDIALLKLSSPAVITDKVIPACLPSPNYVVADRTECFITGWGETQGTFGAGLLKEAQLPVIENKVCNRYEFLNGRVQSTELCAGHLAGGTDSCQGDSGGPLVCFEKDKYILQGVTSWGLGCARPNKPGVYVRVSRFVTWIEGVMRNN
Sequence (P00747 97-580 limits assumed, species assumed): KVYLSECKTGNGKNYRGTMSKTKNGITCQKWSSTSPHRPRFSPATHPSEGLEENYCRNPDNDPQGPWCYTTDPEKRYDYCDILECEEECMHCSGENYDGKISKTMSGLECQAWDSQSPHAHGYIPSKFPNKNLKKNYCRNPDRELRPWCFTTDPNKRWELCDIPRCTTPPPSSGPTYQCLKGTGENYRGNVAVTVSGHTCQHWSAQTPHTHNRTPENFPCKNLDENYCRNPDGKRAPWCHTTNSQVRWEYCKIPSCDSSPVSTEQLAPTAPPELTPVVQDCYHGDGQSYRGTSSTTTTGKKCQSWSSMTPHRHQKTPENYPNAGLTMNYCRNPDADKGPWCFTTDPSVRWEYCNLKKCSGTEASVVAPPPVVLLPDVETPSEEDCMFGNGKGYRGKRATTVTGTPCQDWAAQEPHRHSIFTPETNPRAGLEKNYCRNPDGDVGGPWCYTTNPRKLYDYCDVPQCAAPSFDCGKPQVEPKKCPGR
To interpret pIC50, take it as minus log10 of a concentration measured in moles per litre.

// query pIC50 value for entry CC(C)(C)c1ccc(C(=O)Oc2ccc(C(=N)N)cc2C(=O)c2ccccc2)cc1 [Compound 39]
6.70

// query pIC50 value for entry COC(=O)c1cc(C(=N)N)ccc1OC(=O)c1ccc(CNC(=O)OCc2ccccc2)cc1 [Compound 59]
7.15

// query pIC50 value for entry CC=CC=CC(=O)Oc1ccc(C(=N)N)cc1C(=O)OC [Compound 5]
6.52

// query pIC50 value for entry N=C(N)c1ccc(OC(=O)c2ccccc2)c(S(=O)(=O)O)c1 [Compound 28]
5.15

// query pIC50 value for entry N=C(N)c1ccc(OC(=O)c2ccccc2)c(C(=O)c2ccccc2)c1 [Compound 29, 4-amidino-2-benzoylphenyl benzoate]
6.40
